Origin of values: ChEMBL document CHEMBL3286108

EXPERIMENTAL SYSTEM: 5-hydroxytryptamine receptor 7 (Homo sapiens, UniProt P34969)
Sequence (P34969 whole entry): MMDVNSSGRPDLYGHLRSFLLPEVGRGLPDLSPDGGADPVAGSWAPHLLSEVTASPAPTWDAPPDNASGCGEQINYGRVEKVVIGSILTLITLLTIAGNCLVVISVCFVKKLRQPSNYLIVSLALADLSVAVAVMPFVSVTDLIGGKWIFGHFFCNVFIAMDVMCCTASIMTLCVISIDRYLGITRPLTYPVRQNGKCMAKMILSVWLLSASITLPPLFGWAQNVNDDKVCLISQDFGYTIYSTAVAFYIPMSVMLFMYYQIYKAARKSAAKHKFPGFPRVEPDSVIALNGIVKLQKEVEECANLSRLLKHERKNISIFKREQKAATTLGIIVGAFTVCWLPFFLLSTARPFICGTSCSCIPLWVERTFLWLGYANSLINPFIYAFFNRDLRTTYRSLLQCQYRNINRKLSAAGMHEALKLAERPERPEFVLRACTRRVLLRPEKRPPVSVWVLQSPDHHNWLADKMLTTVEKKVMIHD
PROTOCOL DETAILS: biochemical
Format: cell-based, CHO-K1
// NB: equality with 2 nM counts as Criterion not met; only Ki strictly below is Criterion met

// query In the record for O=S(=O)(NCCCN1CCN(c2nsc3ccccc23)CC1)c1ccc(Cl)c(Cl)c1 , is Ki less than 2 nM?
// result Criterion not met

// query Check Cc1cccc(S(=O)(=O)NCCCN2CCN(c3nsc4ccccc34)CC2)c1 too.
// result Criterion met

// query Check Cc1cccc(S(=O)(=O)NCCCCN2CCN(c3nsc4ccccc34)CC2)c1 too.
// result Criterion met

====

EXPERIMENTAL SYSTEM: Muscarinic acetylcholine receptor M1 (Homo sapiens)
Sequence (whole entry): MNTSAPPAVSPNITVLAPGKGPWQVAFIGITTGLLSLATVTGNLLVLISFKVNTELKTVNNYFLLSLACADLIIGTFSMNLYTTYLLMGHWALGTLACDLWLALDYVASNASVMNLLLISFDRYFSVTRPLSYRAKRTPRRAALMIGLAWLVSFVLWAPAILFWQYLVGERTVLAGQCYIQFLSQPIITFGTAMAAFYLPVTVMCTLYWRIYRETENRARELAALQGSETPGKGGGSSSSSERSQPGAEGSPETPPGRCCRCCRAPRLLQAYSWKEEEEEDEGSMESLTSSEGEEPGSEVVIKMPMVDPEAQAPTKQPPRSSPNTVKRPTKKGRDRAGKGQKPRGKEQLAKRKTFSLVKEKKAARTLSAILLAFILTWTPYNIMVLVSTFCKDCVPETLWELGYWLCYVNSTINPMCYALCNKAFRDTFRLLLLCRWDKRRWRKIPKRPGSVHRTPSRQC
PROTOCOL DETAILS: Displacement of [3H]pirenzepine from human recombinant M1 receptor expressed in CHO cells at 1 uM
Format: cell-based
Reported values of inhibition for individual entries
Return type: number; implicit unit %.

Known results for compounds:
STRUCTURE AS SMILES: O=S(=O)(NCCCN1CCN(c2noc3ccccc23)CC1)c1ccc(F)c(Cl)c1
TEST READOUT: inhibition
MEASUREMENT UNIT: %
READOUT VALUE: 2

STRUCTURE AS SMILES: O=S(=O)(NCCCN1CCN(c2nsc3ccccc23)CC1)c1cnc2ccccn12
TEST READOUT: inhibition
MEASUREMENT UNIT: %
READOUT VALUE: 2

STRUCTURE AS SMILES: Cc1cccc(S(=O)(=O)NCCN2CCC(c3noc4cc(F)ccc34)CC2)c1
TEST READOUT: inhibition
MEASUREMENT UNIT: %
READOUT VALUE: 0

STRUCTURE AS SMILES: O=S(=O)(NCCCCN1CCC(c2noc3cc(F)ccc23)CC1)c1cccc2ccccc12
TEST READOUT: inhibition
MEASUREMENT UNIT: %
READOUT VALUE: 0

// query # inhibition lookup, item O=S(=O)(NCCCCN1CCN(c2nsc3ccccc23)CC1)c1cccs1
// result 1

====

EXPERIMENTAL SYSTEM: 5-hydroxytryptamine receptor 7 (Homo sapiens)
PROTOCOL DETAILS: biochemical
Type: cell-based, CHO-K1
Reported values of pKi for individual entries
In plain terms, pKi is the concentration in mol/L turned into minus its base-10 logarithm.

Known results for compounds:
STRUCTURE AS SMILES: O=S(=O)(NCCCCN1CCN(c2noc3ccccc23)CC1)c1ccc(Cl)c(Cl)c1
pKi: 9.15
--
STRUCTURE AS SMILES: O=S(=O)(NCCCCN1CCN(c2noc3ccccc23)CC1)c1ccc2cc(Cl)ccc2c1
pKi: 8.17
--
STRUCTURE AS SMILES: O=S(=O)(NCCCCN1CCN(c2nsc3ccccc23)CC1)c1ccc(OC(F)(F)F)cc1
pKi: 7.72

// query Checklist item: pKi tested on 5-hydroxytryptamine receptor 7 (Homo sapiens), entry O=S(=O)(NCCCCN1CCN(c2noc3ccccc23)CC1)c1cc2ccc(Cl)cc2s1 , value?
// result 8.29

// query Check Cc1c(S(=O)(=O)NCCCCN2CCN(c3nsc4ccccc34)CC2)sc2ccc(F)cc12 too.
// result 8.34

// query Check Cc1cccc(S(=O)(=O)NCCN2CCN(c3nsc4ccccc34)CC2)c1 too.
// result 8.42

// query Check Cc1c(S(=O)(=O)NCCCN2CCN(c3nsc4ccccc34)CC2)sc2ccc(F)cc12 too.
// result 7.60

// query Check O=S(=O)(NCCCCN1CCC(c2noc3cc(F)ccc23)CC1)c1cc2ccccc2s1 too.
// result 8.80

// query Check O=S(=O)(NCCCN1CCN(c2noc3ccccc23)CC1)c1ccc(Cl)c(Cl)c1 too.
// result 7.47

// query Check O=S(=O)(NCCCN1CCC(c2noc3cc(F)ccc23)CC1)c1ccc(F)c(Cl)c1 too.
// result 9.05

// query Check Cc1c(S(=O)(=O)NCCCCN2CCC(c3noc4cc(F)ccc34)CC2)sc2ccc(F)cc12 too.
// result 9.70

// query Check O=S(=O)(NCCCN1CCN(c2noc3ccccc23)CC1)c1cc2ccc(Cl)cc2s1 too.
// result 6.05
